target: PDE peak A (PDE5) (Homo sapiens, UniProt O76074); construct: SW-480 cells are collected and homogenized; endogenous in cells; host or cells: SW-480 human colon adenocarcinoma cells; supernatant of homogenate fractionated on DEAE-Trisacryl M; test: cGMP hydrolysis by PDE peak A isolated from SW-480 cells; format: biochemical
readout: inhibition of peak A (PDE5), in words

CSc1ccc(/C=C2/C(C)=C(CC(=O)O)c3cc(F)ccc32)cc1 [Sulindac sulfide] :: competitively inhibit
COc1cc(/C=C2/C(C)=C(CC(=O)NCc3ccccc3)c3cc(F)ccc32)cc(OC)c1OC :: competitively inhibit
